- System: KRAS patient-derived spheroids with HUVEC/MSC, viability
- protocol_notes: Anticancer human tumor 941728-121-R-J1-PDC patient-derived lung adenocarcinoma cell line growth inhibition [KRAS2]
- particulars: second compound 0.316 µM; first compound 0.1 µM; stronger effect = lower value
Criterion: viability, T/C strictly less than 50%. Met: true (1). Not met: false (0).

Some solved entries appear below for comparison.
compound	group
Cn1ncnc1[C@H]1c2n[nH]c(=O)c3cc(F)cc(c23)N[C@@H]1c1ccc(F)cc1 + COc1cc2nc(C)nc(NC(C)c3cc(N)cc(C(F)(F)F)c3)c2cc1OC1CCOC1	true (1)
CC1OCC2(CCN(c3cnc(Sc4ccnc(N)c4Cl)c(N)n3)CC2)C1N (stereo not given) + C=CC(=O)N1CCN(c2nc(OCC3CCCN3C)nc3c2CCN(c2cccc4cccc(C)c24)C3)CC1CC#N	true (1)
CCN1CCN(Cc2ccc(Nc3ncc(F)c(-c4cc(F)c5nc(C)n(C(C)C)c5c4)n3)nc2)CC1 + CNCc1ccccc1-c1csc(C(C)Nc2nc(C)nc3cc(OC)c(OC)cc23)c1	true (1)
CCNC(=O)CC1N=C(c2ccc(Cl)cc2)c2cc(OC)ccc2-n2c(C)nnc21 (stereo not given) + C=CC(=O)N1CCN(c2nc(OCC3CCCN3C)nc3c2CCN(c2cccc4cccc(C)c24)C3)CC1CC#N	false (0)

Problem: For the compound CC1OCC2(CCN(c3cnc(Sc4ccnc(N)c4Cl)c(N)n3)CC2)C1N (stereo not given) + COc1cc2nc(C)nc(NC(C)c3cc(N)cc(C(F)(F)F)c3)c2cc1OC1CCOC1 , is viability, T/C under 50%?
true (1)

* * *

IC50 listing for selected molecules.
- Test system: KRAS patient-derived spheroids with HUVEC/MSC, viability
- protocol_notes: Anticancer human tumor 941728-121-R-J1-PDC cell line growth inhibition [KRAS2];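 also: spheroids exposed to agents for seven days before readout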
- particulars: curve of first compound; second compound 0.1 µM
- Source text: Multicellular complex tumor spheroid response to RAS pathway inhibitors in combination with a targeted agents in patient-derived cell lines with oncogenic KRAS variants from multiple cancer types A high-throughput screen of multi-cell type tumor spheroids was designed to identify active combinations of targeted small molecules and KRAS pathway inhibitors. […] Compounds. […] If the clinical Cmax for an agent had not been determined, the highest concentration tested was 10 microM. […]

molecule	endpoint_result
CC(C)NCC(C(=O)N1CCN(c2ncnc3c2C(C)CC3O)CC1)c1ccc(Cl)cc1 (stereo not given) + COc1cc2nc(C)nc(NC(C)c3cc(N)cc(C(F)(F)F)c3)c2cc1OC1CCOC1	32.7 nM
CCNC(=O)CC1N=C(c2ccc(Cl)cc2)c2cc(OC)ccc2-n2c(C)nnc21 (stereo not given) + C=CC(=O)N1CCN(c2nc(OCC3CCCN3C)nc3c2CCN(c2cccc4cccc(C)c24)C3)CC1CC#N	< 31.6 nM
CC1(C)CCC(CN2CCN(c3ccc(C(=O)NS(=O)(=O)c4ccc(NCC5CCOCC5)c([N+](=O)[O-])c4)c(Oc4cnc5[nH]ccc5c4)c3)CC2)=C(c2ccc(Cl)cc2)C1 + COc1cc2nc(C)nc(NC(C)c3cc(N)cc(C(F)(F)F)c3)c2cc1OC1CCOC1	< 31.6 nM

Reported IC50 ( CC(C)NCC(C(=O)N1CCN(c2ncnc3c2C(C)CC3O)CC1)c1ccc(Cl)cc1 (stereo not given) + CNCc1ccccc1-c1csc(C(C)Nc2nc(C)nc3cc(OC)c(OC)cc23)c1 ) = 218 nM

Please fill in: IC50 reported for CCNC(=O)CC1N=C(c2ccc(Cl)cc2)c2cc(OC)ccc2-n2c(C)nnc21 (stereo not given) + C=CC(=O)N1CCN(c2nc(=O)n(-c3c(C)ccnc3C(C)C)c3nc(-c4c(O)cccc4F)c(F)cc23)C(C)C1 = < 31.6 nM

Values from PubChem BioAssay AID1963862
